settings: 20% cynomolgus monkey fecal homogenate, 37° C., 20 μM
Bridge positions count the residues as written; N and C are the ends. Square brackets hold non-standard residues; d marks the D form. Peptide text beside a SMILES is read from it. Trp(7-Me) = Cc1cccc2c(C[C@H](N)C(=O)O)c[nH]c12; 2Nal = N[C@@H](Cc1ccc2ccccc2c1)C(=O)O; AEF = NCCOc1ccc(C[C@H](N)C(=O)O)cc1; Cit = NC(=O)NCCC[C@H](N)C(=O)O; Pen = CC(C)(S)[C@H](N)C(=O)O; αMeK = C[C@](N)(CCCCN)C(=O)O; Aib = CC(C)(N)C(=O)O; βAla = NCCC(=O)O
Task for the reader: assign each of the following compounds its reported t½: Monkey Feces anaerobic.

In: Return t½: Monkey Feces anaerobic (reported value) for this compound: CC(=O)N[C@@H]1C(=O)N[C@@H](CC(N)=O)C(=O)N[C@@H]([C@@H](C)O)C(=O)N[C@@H](Cc2c[nH]c3c(C)cccc23)C(=O)N[C@@H](CCCNC(N)=O)C(=O)N[C@H](C(=O)N[C@@H](Cc2ccc(OCCN)cc2)C(=O)N[C@@H](Cc2ccc3ccccc3c2)C(=O)N[C@@](C)(CCCCN)C(=O)N[C@@H](CCCNC(N)=O)C(=O)NCCC(=O)NCCC(N)=O)C(C)(C)SSC1(C)C [compound 281] (Ac-[Pen]NT[Trp(7-Me)][Cit][Pen][AEF][2Nal][αMeK][Cit][βAla][βAla]-NH2; disulfide 1-6)
Out: >24 h

In: Return t½: Monkey Feces anaerobic (reported value) for this compound: CC(=O)NCCCC[C@H](NC(=O)[C@](C)(CCCCN)NC(=O)[C@H](Cc1ccc2ccccc2c1)NC(=O)[C@H](Cc1ccc(OCCN)cc1)NC(=O)[C@H]1NC(=O)[C@H](CCCCNC(=O)C(C)(C)N)NC(=O)[C@H](Cc2c[nH]c3c(C)cccc23)NC(=O)[C@H]([C@@H](C)O)NC(=O)[C@H](CC(N)=O)NC(=O)[C@@H](NC(C)=O)C(C)(C)SSC1(C)C)C(=O)N[C@@H](CC(N)=O)C(=O)N[C@H](CC(C)C)C(N)=O [compound 322]
Out: >24 h

In: Return t½: Monkey Feces anaerobic (reported value) for this compound: CC(=O)NCCCC[C@H](NC(=O)[C@](C)(CC(C)C)NC(=O)[C@H](Cc1ccc2ccccc2c1)NC(=O)[C@H](Cc1ccc(OCCN)cc1)NC(=O)[C@H]1NC(=O)[C@H](CCC(N)=O)NC(=O)[C@H](Cc2c[nH]c3c(C)cccc23)NC(=O)[C@H]([C@@H](C)O)NC(=O)[C@H](CC(N)=O)NC(=O)[C@@H](NC(C)=O)C(C)(C)SSC1(C)C)C(=O)N1CCC[C@H]1C(=O)NCCC(N)=O [compound 211]
Out: >24 h

In: Return t½: Monkey Feces anaerobic (reported value) for this compound: CC(=O)NCCCC[C@H](NC(=O)[C@](C)(CCCCN)NC(=O)[C@H](Cc1ccc2ccccc2c1)NC(=O)[C@H](Cc1ccc(OCCN)cc1)NC(=O)[C@H]1NC(=O)[C@H](CCC(N)=O)NC(=O)[C@H](Cc2c[nH]c3c(C)cccc23)NC(=O)[C@H]([C@@H](C)O)NC(=O)C(C)(C)NC(=O)[C@@H](NC(C)=O)C(C)(C)SSC1(C)C)C(=O)N[C@@H](CC(N)=O)C(=O)NCCC(N)=O [compound 240] (Ac-[Pen][Aib]T[Trp(7-Me)]Q[Pen][AEF][2Nal][αMeK]K(Ac)N[βAla]-NH2; disulfide 1-6)
Out: 3 h
